Test system: Trichoderma viride
Assay: Antifungal activity against Trichoderma viride IAM 5061 assessed as growth inhibition after 72 hrs at 28 degC by serial dilution method
Type: functional
Value Kind: log10(MFC99.5) (log10 of the value in ×10⁻² umol/ml)

[
  {
    "Compound": "O=C1CSC(c2cccc(Cl)c2Cl)N1c1nc(C23CC4CC(CC(C4)C2)C3)cs1 (configuration not stated)",
    "Value Kind": "log10(MFC99.5)",
    "Result": -1.22
  },
  {
    "Compound": "O=C1CSC(c2ccc(Cl)cc2)N1c1nc(C23CC4CC(CC(C4)C2)C3)cs1 (configuration not stated)",
    "Value Kind": "log10(MFC99.5)",
    "Result": -1.30
  },
  {
    "Compound": "O=C1CSC(c2ccccc2Cl)N1c1nc(C23CC4CC(CC(C4)C2)C3)cs1 (configuration not stated)",
    "Value Kind": "log10(MFC99.5)",
    "Result": 0.06
  },
  {
    "Compound": "CC(=O)N1CCN(c2ccc(OCC3COC(Cn4ccnc4)(c4ccc(Cl)cc4Cl)O3)cc2)CC1 (configuration not stated)",
    "Value Kind": "log10(MFC99.5)",
    "Result": 2.76
  },
  {
    "Compound": "O=C1CSC(c2c(Cl)cccc2Cl)N1c1nc(C23CC4CC(CC(C4)C2)C3)cs1 (configuration not stated)",
    "Value Kind": "log10(MFC99.5)",
    "Result": 1.33
  },
  {
    "Compound": "COc1ccc(C2SCC(=O)N2c2nc(C34CC5CC(CC(C5)C3)C4)cs2)cc1 (configuration not stated)",
    "Value Kind": "log10(MFC99.5)",
    "Result": -0.54
  },
  {
    "Compound": "O=C1CSC(c2cccc(Cl)c2)N1c1nc(C23CC4CC(CC(C4)C2)C3)cs1 (configuration not stated)",
    "Value Kind": "log10(MFC99.5)",
    "Result": -1.35
  },
  {
    "Compound": "COc1ccc(OC)c(C2SCC(=O)N2c2nc(C34CC5CC(CC(C5)C3)C4)cs2)c1 (configuration not stated)",
    "Value Kind": "log10(MFC99.5)",
    "Result": 1.34
  },
  {
    "Compound": "O=C1CSC(c2cccc(F)c2)N1c1nc(C23CC4CC(CC(C4)C2)C3)cs1 (configuration not stated)",
    "Value Kind": "log10(MFC99.5)",
    "Result": -0.85
  },
  {
    "Compound": "O=C1CSC(c2ccc(Br)cc2)N1c1nc(C23CC4CC(CC(C4)C2)C3)cs1 (configuration not stated)",
    "Value Kind": "log10(MFC99.5)",
    "Result": 1.02
  },
  {
    "Compound": "O=C1CSC(c2ccc([N+](=O)[O-])cc2)N1c1nc(C23CC4CC(CC(C4)C2)C3)cs1 (configuration not stated)",
    "Value Kind": "log10(MFC99.5)",
    "Result": -0.55
  },
  {
    "Compound": "c1ccc(-c2ccc(C(c3ccccc3)n3ccnc3)cc2)cc1 (configuration not stated)",
    "Value Kind": "log10(MFC99.5)",
    "Result": 1.90
  }
]

====

System: Listeria monocytogenes
Assay: Antibacterial activity against Listeria monocytogenes NCTC 7973 assessed as growth inhibition after 24 hrs at 37 degC by iodonitrotetrazolium chloride staining based microdilution broth assay
Format: functional
Conditions: NCTC 7973, 24 h
# label = bin(measured MIC), where bins are one: < 60 µM; two: ≥ 60 µM and < 400 µM; three: ≥ 400 µM

[
  {
    "Molecule": "O=C1CSC(c2c(Cl)cccc2Cl)N1c1nc(C23CC4CC(CC(C4)C2)C3)cs1 (configuration not stated)",
    "Target Desc": "Listeria monocytogenes",
    "Qualitative Label": "three"
  },
  {
    "Molecule": "CN[C@@H]1[C@H](O[C@H]2[C@H](O[C@H]3[C@H](O)[C@@H](O)[C@H](N=C(N)N)[C@@H](O)[C@@H]3N=C(N)N)O[C@@H](C)[C@]2(O)C=O)O[C@@H](CO)[C@H](O)[C@H]1O",
    "Target Desc": "Listeria monocytogenes",
    "Qualitative Label": "two"
  },
  {
    "Molecule": "O=C1CSC(c2ccc(Br)cc2)N1c1nc(C23CC4CC(CC(C4)C2)C3)cs1 (configuration not stated)",
    "Target Desc": "Listeria monocytogenes",
    "Qualitative Label": "three"
  },
  {
    "Molecule": "COc1ccc(C2SCC(=O)N2c2nc(C34CC5CC(CC(C5)C3)C4)cs2)cc1 (configuration not stated)",
    "Target Desc": "Listeria monocytogenes",
    "Qualitative Label": "two"
  },
  {
    "Molecule": "O=C1CSC(c2ccccc2Cl)N1c1nc(C23CC4CC(CC(C4)C2)C3)cs1 (configuration not stated)",
    "Target Desc": "Listeria monocytogenes",
    "Qualitative Label": "one"
  },
  {
    "Molecule": "O=C1CSC(c2cccc(Cl)c2)N1c1nc(C23CC4CC(CC(C4)C2)C3)cs1 (configuration not stated)",
    "Target Desc": "Listeria monocytogenes",
    "Qualitative Label": "two"
  },
  {
    "Molecule": "O=C1CSC(c2cccc(Cl)c2Cl)N1c1nc(C23CC4CC(CC(C4)C2)C3)cs1 (configuration not stated)",
    "Target Desc": "Listeria monocytogenes",
    "Qualitative Label": "two"
  },
  {
    "Molecule": "CC1(C)S[C@@H]2[C@H](NC(=O)[C@H](N)c3ccccc3)C(=O)N2[C@H]1C(=O)O",
    "Target Desc": "Listeria monocytogenes",
    "Qualitative Label": "two"
  },
  {
    "Molecule": "O=C1CSC(c2cccc(F)c2)N1c1nc(C23CC4CC(CC(C4)C2)C3)cs1 (configuration not stated)",
    "Target Desc": "Listeria monocytogenes",
    "Qualitative Label": "one"
  },
  {
    "Molecule": "O=C1CSC(c2ccc(Cl)cc2)N1c1nc(C23CC4CC(CC(C4)C2)C3)cs1 (configuration not stated)",
    "Target Desc": "Listeria monocytogenes",
    "Qualitative Label": "two"
  },
  {
    "Molecule": "COc1ccc(OC)c(C2SCC(=O)N2c2nc(C34CC5CC(CC(C5)C3)C4)cs2)c1 (configuration not stated)",
    "Target Desc": "Listeria monocytogenes",
    "Qualitative Label": "three"
  }
]
